molecular target: T1, biotinylated native human ApoC3 (human, UniProt P02656 21-99, biotinylated (site not stated)); assay: SPR, scFv-Fc over biotinylated ApoC3 on SA chip
T1 construct: also called biotinylated human ApoC3
T1 sequence (P02656 21-99): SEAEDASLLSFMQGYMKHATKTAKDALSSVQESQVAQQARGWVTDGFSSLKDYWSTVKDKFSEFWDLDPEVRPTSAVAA
assay.endpoint: KD pH 5.5/KD pH 7.4
Lab note: jot down the number only; don't add units.

[Q] I'd like to know its KD pH 5.5/KD pH 7.4. The binder in question is 5E5VH5_VLWT scFv-Fc (scFv, part only; not given: Linker, domain order, Fc, V domains shown, not shown: another chain or arm of the molecule; a dimerising Fc or GST; small tags and cut ends) VH: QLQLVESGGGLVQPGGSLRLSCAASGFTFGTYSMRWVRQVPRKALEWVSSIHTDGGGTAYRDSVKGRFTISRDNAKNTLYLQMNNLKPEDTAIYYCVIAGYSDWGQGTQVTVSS VL: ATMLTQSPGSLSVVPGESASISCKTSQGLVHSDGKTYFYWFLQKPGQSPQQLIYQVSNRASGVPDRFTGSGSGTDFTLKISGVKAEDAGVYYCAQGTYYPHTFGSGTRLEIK
[A] 18.5

Source of measurements: patent US20200239555A1
